- experimental system: Ba/F3 V617F cells (Homo sapiens, UniProt O60674, V617F, cells depend on it)
- Sequence (O60674 whole entry V617F): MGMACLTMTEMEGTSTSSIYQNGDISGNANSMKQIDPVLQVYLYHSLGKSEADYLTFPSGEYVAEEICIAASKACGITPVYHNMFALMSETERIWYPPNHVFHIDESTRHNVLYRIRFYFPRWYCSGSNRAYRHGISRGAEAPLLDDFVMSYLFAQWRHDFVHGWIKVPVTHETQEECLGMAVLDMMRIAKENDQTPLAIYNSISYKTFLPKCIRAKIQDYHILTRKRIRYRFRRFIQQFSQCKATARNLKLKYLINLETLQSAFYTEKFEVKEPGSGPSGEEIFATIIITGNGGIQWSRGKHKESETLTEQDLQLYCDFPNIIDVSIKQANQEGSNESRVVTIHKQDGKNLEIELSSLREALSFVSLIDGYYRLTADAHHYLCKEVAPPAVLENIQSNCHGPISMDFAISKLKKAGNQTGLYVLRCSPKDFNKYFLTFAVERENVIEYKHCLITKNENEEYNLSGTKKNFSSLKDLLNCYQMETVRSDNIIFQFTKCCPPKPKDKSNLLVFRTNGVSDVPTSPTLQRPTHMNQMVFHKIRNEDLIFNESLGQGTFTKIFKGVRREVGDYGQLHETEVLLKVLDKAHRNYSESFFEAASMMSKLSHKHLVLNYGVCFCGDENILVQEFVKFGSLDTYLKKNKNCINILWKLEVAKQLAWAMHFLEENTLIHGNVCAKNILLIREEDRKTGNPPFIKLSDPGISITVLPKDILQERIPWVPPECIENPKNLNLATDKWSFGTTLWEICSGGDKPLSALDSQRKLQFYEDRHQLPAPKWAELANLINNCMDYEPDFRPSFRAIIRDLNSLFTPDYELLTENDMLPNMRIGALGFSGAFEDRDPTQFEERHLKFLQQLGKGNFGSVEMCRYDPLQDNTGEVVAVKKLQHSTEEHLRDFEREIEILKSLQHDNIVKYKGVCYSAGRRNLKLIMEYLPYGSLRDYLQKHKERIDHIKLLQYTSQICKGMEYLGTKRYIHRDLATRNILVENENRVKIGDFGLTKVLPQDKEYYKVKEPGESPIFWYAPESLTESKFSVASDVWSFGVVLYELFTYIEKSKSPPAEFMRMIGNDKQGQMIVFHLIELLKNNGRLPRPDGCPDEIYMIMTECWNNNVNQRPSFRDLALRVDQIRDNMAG
- method notes: Proliferation assay (Cell Titer-Glo, 72 h) utilizing Ba/F3 V617F cells
- Format: cell-based, mouse
- condition info: Ba/F3 V617F cells, proliferation, level of activity given as class symbol, read-out: IC50 (the source's name)
Entries and their GI50 values follow.
quantity: GI50

compound: CCOCCCNc1ccc(-c2ccnc(Nc3ccc(N4CC5(C)CN(C)CC(C)(C4)C5)c(C)c3)n2)cn1 [compound 211]
experimental system: Ba/F3 V617F cells (Homo sapiens, UniProt O60674, V617F, cells depend on it)
meas value: < 1 µM
//
compound: Cc1cc(Nc2nccc(-c3ccc(NCCCN(C)C)nc3)n2)ccc1N1CC2(C)CN(C)CC(C)(C1)C2 [compound 214]
experimental system: Ba/F3 V617F cells (Homo sapiens, UniProt O60674, V617F, cells depend on it)
meas value: 1 to 10 µM
//
compound: Cc1cc(Nc2nccc(-c3ccnc(C(F)(F)F)c3)n2)ccc1N1C[C@@H]2C[C@H]1CN2C [compound 256]
experimental system: Ba/F3 V617F cells (Homo sapiens, UniProt O60674, V617F, cells depend on it)
meas value: < 1 µM
//
compound: CC1(C)Oc2cc(-c3ccnc(Nc4ccc(C5CC6CC5CN6S(C)(=O)=O)cc4)n3)cnc2NC1=O (stereo not shown) [compound 226]
experimental system: Ba/F3 V617F cells (Homo sapiens, UniProt O60674, V617F, cells depend on it)
meas value: 1 to 10 µM
